- experimental_system: recombinant human NR2F6 protein (Homo sapiens)
- Sequence (P10588 whole entry): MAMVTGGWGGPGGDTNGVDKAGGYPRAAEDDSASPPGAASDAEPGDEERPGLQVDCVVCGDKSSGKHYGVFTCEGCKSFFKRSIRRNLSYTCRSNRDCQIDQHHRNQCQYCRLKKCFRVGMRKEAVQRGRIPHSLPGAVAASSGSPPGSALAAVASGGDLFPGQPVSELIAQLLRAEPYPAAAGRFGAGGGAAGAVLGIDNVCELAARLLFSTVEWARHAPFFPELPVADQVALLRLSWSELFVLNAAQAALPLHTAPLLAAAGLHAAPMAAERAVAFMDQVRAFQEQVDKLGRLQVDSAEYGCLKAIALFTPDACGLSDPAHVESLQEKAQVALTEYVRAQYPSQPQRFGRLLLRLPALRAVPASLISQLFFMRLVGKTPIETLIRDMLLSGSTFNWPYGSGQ
- assay_method_text: Biochemical NR2F6 binding assay (EnSpire label-free)
- condition_label: label-free binding to immobilized purified recombinant human NR2F6; ligands 1 nM to 100 uM, 1% DMSO
Where a name gives a salt, the structure may show the parent alone.
property_measured: EC50

• O=C(N[C@H]1CC[C@H](O)CC1)[C@H]1CNC[C@@H]1c1ccccc1 [Compound I-36, hydrochloride] = > 50 µM
• O=C(Nc1cccc2cnccc12)[C@H]1CNC[C@@H]1c1ccc(C(F)(F)F)cc1 [Compound I-82, dihydrochloride] = > 50 µM
• O=C(Nc1cccc2cnccc12)[C@@H]1CNC[C@H]1c1ccccc1 [Compound I-40, dihydrochloride] = > 50 µM
• O=C(Nc1cccc2cnccc12)[C@@H]1CNC[C@H]1c1nccs1 [Compound I-59, dihydrochloride] = > 50 µM
• Cc1cccc(Oc2cccc(NC(=O)[C@H]3CNC[C@@H]3c3ccccc3)c2)c1 (racemic) [Compound I-97, hydrochloride] = 1 to 10 µM
• O=C(Nc1cccc(-c2ccccc2)c1)[C@@H]1CNC[C@H]1c1cccc(F)c1 (racemic) [Compound I-27, hydrochloride] = > 50 µM
• O=C(c1cccc2cnccc12)[C@H]1CNC[C@@H]1c1ccccc1 (racemic) [Compound I-100, dihydrochloride] = 1 to 10 µM
• O=S(=O)(N[C@@H]1CNC[C@H]1c1ccccc1)c1cccc2cnccc12 (racemic) [Compound I-8] = > 50 µM
• O=C(Nc1cccc(-c2ccccc2)c1)[C@@H]1CNC[C@H]1c1ccc(F)cc1 (racemic) [Compound I-23, hydrochloride] = 1 to 10 µM
• O=C(Nc1cccc(Oc2ccc(C(F)(F)F)cc2)c1)[C@H]1CNC[C@@H]1c1ccccc1 (racemic) [Compound I-92, hydrochloride] = 1 to 10 µM
• O=C(Nc1nccc2ccccc12)[C@@H]1CNC[C@H]1c1ccccc1 (racemic) [Compound I-12, dihydrochloride] = > 50 µM
• CN1CCC(CNC(=O)[C@H]2CNC[C@@H]2c2ccccc2)CC1 [Compound I-35, dihydrochloride] = > 50 µM
• c1ccc([C@@H]2CNC[C@@H]2Oc2cccc3cnccc23)cc1 (racemic) [Compound I-61, dihydrochloride] = 1 to 10 µM
• O=C(Nc1ccc(-c2ccccc2)cc1)[C@@H]1CNC[C@H]1c1ccccc1 (racemic) [Compound I-24, hydrochloride] = 1 to 10 µM

---

- experimental_system: recombinant human NR2F6 protein (Homo sapiens)
- assay_method_text: Biochemical NR2F6 binding assay (EnSpire label-free)
- condition_label: label-free binding to immobilized purified recombinant human NR2F6; ligands 1 nM to 100 uM, 1% DMSO
pEC50: −log10 of the molar value. Structures can show the parent of a compound that is named as a salt.
Below, each of the compounds is paired with its reported pEC50 value.
property_measured: pEC50

- O=C(NCc1ccccc1)[C@H]1CNC[C@@H]1c1ccccc1 [Compound I-33, hydrochloride]: 4.30 to 5.00
- COc1ccc([C@@H]2CNC[C@H]2C(=O)Nc2cccc(-c3ccccc3)c2)cc1 (racemic) [Compound I-45, hydrochloride]: < 4.30
- O=C(Nc1cccc(-c2cccnc2)c1)[C@@H]1CNC[C@H]1c1cccs1 (racemic) [Compound I-49, dihydrochloride]: < 4.30
- O=C(Nc1cccc2cnccc12)[C@H]1CNC[C@@H]1c1cccs1 [Compound I-44, dihydrochloride]: < 4.30
- O=C(Nc1cccc(Nc2ccccc2)c1)[C@H]1CNC[C@@H]1c1ccccc1 [Compound I-113, hydrochloride]: 5.00 to 6.00
- O=C(Nc1ccc(-c2cccnc2)cc1)[C@@H]1CNC[C@H]1c1ccccc1 (racemic) [Compound I-25, dihydrochloride]: 5.00 to 6.00
- O=C(Nc1ccc(-c2cccnc2)cc1)[C@@H]1CNC[C@H]1c1ccccc1 [Compound I-41, dihydrochloride]: 5.00 to 6.00
- O=C(Nc1cccc(Oc2ccccc2)c1)[C@H]1CNC[C@@H]1c1ccccc1 (racemic) [Compound I-69, hydrochloride]: > 6.00
- O=C(Nc1cccc2cnccc12)[C@H]1CNC[C@@H]1c1ccc(F)cc1 [Compound I-81, dihydrochloride]: < 4.30
- O=C(Nc1ccc(-c2cccnc2)cc1)[C@H]1CNC[C@@H]1c1ccccc1 [Compound I-39, dihydrochloride]: < 4.30
- O=C(Nc1cccc(-c2ccccc2)c1)[C@@H]1CNC[C@H]1c1ccccc1F (racemic) [Compound I-28, hydrochloride]: < 4.30
- S=C(Nc1cccc2cnccc12)O[C@@H]1CNC[C@@H]1c1ccccc1 (racemic): 4.30 to 5.00
- O=C(Nc1cccc(-c2cccnc2)c1)[C@@H]1CN(Cc2ccccc2)C[C@H]1c1ccccc1 (racemic): 5.00 to 6.00
- O=C(Nc1cccc2cnccc12)[C@H]1CNC[C@@H]1c1nccs1 [Compound I-58, dihydrochloride]: < 4.30
- N#Cc1ccc(N2CCC(NC(=O)[C@@H]3CNC[C@H]3c3ccccc3)CC2)cc1 [Compound I-122, dihydrochloride]: > 6.00
- O=C(Nc1ccc(Oc2cccnc2)cc1)[C@H]1CNC[C@@H]1c1ccccc1 (racemic) [Compound I-70, dihydrochloride]: < 4.30
- O=C(Nc1ncc(-c2cccnc2)s1)[C@@H]1CNC[C@H]1c1ccccc1 (racemic): 5.00 to 6.00
- O=C(Nc1cccc(Oc2ccc(C(F)(F)F)nc2)c1)[C@@H]1CNC[C@H]1c1ccccc1 [Compound I-120, dihydrochloride]: 5.00 to 6.00
- O=C(Nc1cccc2cnccc12)[C@@H]1CNC[C@H]1c1cccs1: < 4.30
- O=C([C@@H]1CNC[C@H]1c1ccccc1)N1CC(c2cccnc2)C1 (racemic) [Compound I-48, dihydrochloride]: < 4.30
- CC(=O)N1C[C@@H](C(=O)Nc2cccc(-c3cccnc3)c2)[C@H](c2ccccc2)C1 (racemic): < 4.30
- O=C(Nc1cccc(-c2ccccc2)c1)[C@@H]1CNC[C@H]1c1ccccc1 [Compound I-42, hydrochloride]: 5.00 to 6.00
- O=C(Nc1cccc2cccnc12)[C@@H]1CNC[C@H]1c1ccccc1 (racemic) [Compound I-18, dihydrochloride]: 4.30 to 5.00
- c1ccc([C@H]2CNC[C@@H]2Nc2nc3cnccc3s2)cc1 (racemic) [Compound I-10, hydrochloride]: < 4.30
- O=C(Nc1ccc(-c2ccc(C(F)(F)F)nc2)cc1)[C@@H]1CNC[C@H]1c1ccccc1 [Compound I-103, hydrochloride]: > 6.00
- O=C(Nc1ccccc1Oc1cccnc1)[C@H]1CNC[C@@H]1c1ccccc1 (racemic) [Compound I-68, dihydrochloride]: 5.00 to 6.00
- O=C(NCc1ccncc1)[C@H]1CNC[C@@H]1c1ccccc1 [Compound I-31, dihydrochloride]: 5.00 to 6.00
- N#Cc1ccc(Oc2cccc(NC(=O)[C@H]3CNC[C@@H]3c3ccccc3)c2)cc1 (racemic) [Compound I-90, hydrochloride]: > 6.00
